- assayTarget: T1, recombinant human soluble gpNMB (recombinant human gpNMB-FLAG-His) (human, UniProt Q14956 23-498)
- T1 sequence: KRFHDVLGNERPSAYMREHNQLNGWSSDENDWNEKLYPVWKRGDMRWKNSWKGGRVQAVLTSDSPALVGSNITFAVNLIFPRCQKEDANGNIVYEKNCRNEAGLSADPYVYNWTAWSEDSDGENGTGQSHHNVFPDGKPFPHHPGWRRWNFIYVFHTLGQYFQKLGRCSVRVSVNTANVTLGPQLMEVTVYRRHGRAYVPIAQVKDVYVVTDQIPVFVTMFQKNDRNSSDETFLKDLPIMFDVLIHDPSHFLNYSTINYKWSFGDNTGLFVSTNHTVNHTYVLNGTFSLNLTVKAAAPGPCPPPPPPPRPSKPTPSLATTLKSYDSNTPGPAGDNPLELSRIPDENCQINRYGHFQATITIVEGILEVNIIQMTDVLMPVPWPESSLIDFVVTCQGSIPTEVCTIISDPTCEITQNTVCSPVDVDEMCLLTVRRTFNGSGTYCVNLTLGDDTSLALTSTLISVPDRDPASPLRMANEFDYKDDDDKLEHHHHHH
- methodSummary: antigen ELISA
binders and their reported EC50
State the answer as a number, implicitly in nM.

Give its EC50 value. Item: hGPN06-1_H1L1 VH S104A (antibody, V domains shown) VH: QVQLVQSGAEVKKPGASVKVSCKASGYTFTDNWMGWVKQRPGQGLEWIGAIDPSDSFTNYNQNFKGRVTMTVDTSISTAYMELSRLRSDDSAVYFCTRSGYYGAPKLGGDYWGQGTLVTVSS VL: EIVLTQSPSSLSASVGDRVTITCSASSSISYMHWYQQKSGTAPKLLIYSTSNLASGVPSRFSGSGSGTDFTFTISSLQPEDAATYYCHQWNSYPCTFGGGTKLEIK 0.712

Input hGPN06-1_H1L1 VH P105A (antibody, V domains shown) VH: QVQLVQSGAEVKKPGASVKVSCKASGYTFTDNWMGWVKQRPGQGLEWIGAIDPSDSFTNYNQNFKGRVTMTVDTSISTAYMELSRLRSDDSAVYFCTRSGYYGSAKLGGDYWGQGTLVTVSS VL: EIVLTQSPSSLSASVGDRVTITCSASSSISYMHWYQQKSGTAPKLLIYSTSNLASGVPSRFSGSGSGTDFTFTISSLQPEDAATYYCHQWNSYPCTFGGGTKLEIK 1.18

Input hGPN06-1_H1L1 VH G103A (antibody, V domains shown) VH: QVQLVQSGAEVKKPGASVKVSCKASGYTFTDNWMGWVKQRPGQGLEWIGAIDPSDSFTNYNQNFKGRVTMTVDTSISTAYMELSRLRSDDSAVYFCTRSGYYASPKLGGDYWGQGTLVTVSS VL: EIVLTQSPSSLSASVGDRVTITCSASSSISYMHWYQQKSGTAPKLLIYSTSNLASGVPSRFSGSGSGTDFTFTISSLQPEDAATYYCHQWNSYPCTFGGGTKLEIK 0.762

Input hGPN06-1_H1L1 VH L107A (antibody, V domains shown) VH: QVQLVQSGAEVKKPGASVKVSCKASGYTFTDNWMGWVKQRPGQGLEWIGAIDPSDSFTNYNQNFKGRVTMTVDTSISTAYMELSRLRSDDSAVYFCTRSGYYGSPKAGGDYWGQGTLVTVSS VL: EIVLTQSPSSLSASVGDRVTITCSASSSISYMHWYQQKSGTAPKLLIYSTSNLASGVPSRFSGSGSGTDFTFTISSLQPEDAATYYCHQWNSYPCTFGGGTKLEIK 1.05

Data provenance: patent EP4772193A1
